Provide the reported Activity (logarithmic partition parameter above dissolved WC scented block cleaners) of each item.
- test-description: Headspace above the solution of WC scented block cleaner: relative partition parameter (SPME-GC)
- Assay type: physicochemical
- run-parameters: log of amount in headspace above 1% solution in water relative to amount in WC block; 1% odorant mixture, SPME 15 min
Numbers only.

Q: Look at this compound and give its reported Activity (logarithmic partition parameter above dissolved WC scented block cleaners). CC(=O)OC(C)c1ccccc1 (stereo not drawn) [Styrolyl acetate]
A: −1.320

Provide each entry's Activity (logarithmic partition parameter above dissolved WC scented block cleaners) from the list below.
1. C=CC(C)(O)CCC=C(C)C (stereo not drawn) [Linalool]
2. CC1=CCC(C(C)C)=CC1 [gamma-Terpinene]
3. CC(=O)/C=C/C1=C(C)CCCC1(C)C [Ionone, beta]
4. C=C1CCC2CC1C2(C)C (stereo not drawn) [beta-Pinene]
5. C=CCc1ccc(O)c(OC)c1 [Eugenol]
6. CC(C)=CCC/C(C)=C/CO [Geraniol]
7. O=C(OCc1ccccc1)c1ccccc1O [Benzyl salicylate]

A:
["−1.299", "−1.230", "−0.819", "−1.682", "−2.412", "−2.045", "−3.166"]

Q: Look at this compound and give its reported Activity (logarithmic partition parameter above dissolved WC scented block cleaners). CC(=O)OC(C)(C)C1CC=C(C)CC1 (stereo not drawn) [Terpinyl acetate]
A: −0.524
